# method.summary: qHTS for Inhibitors of the Aldehyde Dehydrogenase Family (ALDH1A2, ALDH1A3, ALDH2, ALDH3A1) (AID 2061307); note: nearly all actives have a fitted effect of over 50% in size
# run.conditions: ALDH inhibition qHTS; series mostly up to 50.3 µM
Results filed as inconclusive are left out. Activity calls are given as the source filed them. Calls come from the whole dose curve; as a rule, active = well fitted inhibition curve with a large enough effect; inconclusive = small, poorly fitted or top-dose-only effect; inactive = no such curve, though single readings can be large or run the other way.
Use one of these outcomes when replying: YES (active), NO (inactive)

Worked cases, answers included:
- compound: "COc1ccc(C2Nc3ccccc3C(=O)N2CC(C)(C)C)cc1COc1ccc(NC(C)=O)cc1 (stereo not given)"
  class.label: "YES"
- compound: "NCCCCN(Cc1nc2ccccc2[nH]1)[C@H]1CCCc2cccnc21"
  class.label: "NO"
- compound: "CN1CCC2(CCN3CCc4c(oc5ccccc45)C3C2)N(C)C1=O (stereo not given)"
  class.label: "NO"
- compound: "CCc1ccc(CN2CCC(C(=O)Nc3ccc(Oc4cccnc4)cc3)CC2)o1"
  class.label: "NO"
- compound: "Cc1ccc(C[C@@H](NS(=O)(=O)c2ccc(C(=O)O)cc2)C(=O)O)cc1"
  class.label: "NO"

Call for entry "COc1ccc(C2=Nn3c(nnc3-c3cc(OC)ccc3OC)SC2)c(OC)c1" :
YES

====

# assayed.system: Cellular tumor antigen p53 (Homo sapiens)
# method.summary: Primary qHTS for small molecule compounds that upregulate eGFP-tagged delta133p53alpha (in N-terminal) cells. (AID 2060322);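 note: cells pre-induced with doxycycline then dosed without doxycycline; 0% = DMSO vehicle and 100% = reference activator; nearly all actives have a fitted effect of over 75% in size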
# run.conditions: NCI-H358 eGFP-delta133p53alpha fluorescence, 24 h; hits give high values
Inconclusive results are not listed.
molecules and their reported activation
// return numeric value only (unit: %, not printed)

- molecule: "COc1ccc(C#Cc2ccc(C(=O)N3CCC[C@@H](O)C3)c(F)c2)cc1"
  readout.number: -8.04
- molecule: "C1CCC[C@H]2CCCN3CC[C@@H](CCCCCC[C@@H]4CCCN5CC[C@@H](CC1)O[C@@H]45)O[C@@H]23"
  readout.number: -4.33
- molecule: "CCCCCCOC(=O)/N=C(\\N)c1ccc(NCc2nc3cc(C(=O)N(CCC(=O)OCC)c4ccccn4)ccc3n2C)cc1"
  readout.number: -0.955
- molecule: "CC1(O)CCC2C(C(=O)O)=COC(OC3OC(CO)C(O)C(O)C3OC(=O)/C=C/c3ccc(O)cc3)C21 (stereo not given)"
  readout.number: -16
- molecule: "COc1ccc(CNCc2cccc3ccccc23)cc1"
  readout.number: -2.33
- molecule: "CCCC(=O)O[C@]1(C(=O)CC)CC[C@H]2[C@@H]3CCC4=CC(=O)CC[C@]4(C)[C@H]3[C@@H](O)C[C@@]21C"
  readout.number: -20.9

For Cellular tumor antigen p53 (Homo sapiens), provide activation of CCC(C)C1NC(=O)C2C(C)CCN2C(=O)C(CC(O)CO)OC(=O)CCNC(=O)C(C)N(C)C(=O)C(C(C)C)N(C)C1=O (stereo not given) please.
-6.11

Consider next the molecule "CC(C)(C)c1nnc(NS(=O)(=O)c2ccc(N)cc2)s1" in the same way.
-16.7

One more molecule: "CCN(CC)CCNC(=O)COc1ccc(Cl)cc1"
19.2

Then what about the molecule C=C1[C@H]2CCC3[C@]4(C)CCC[C@@](C)(C(=O)O)C4CC[C@]3(C2)[C@H]1OC(C)=O (stereo not given in full) ?
-17.6

Ok, now "COc1ccc(-n2[nH]c3c(cnc4ccccc43)c2=O)cc1"
-9.55

Thanks! And "O=C1C[C@@]2(C(=O)N1)C(=O)N(Cc1ccc(Br)cc1F)C(=O)c1cccn12" ?
-11.7

Next molecule: "O=C(/C=C/c1ccc(O)cc1)OC[C@H]1O[C@H](O[C@@]2(CO)O[C@@H](CO)[C@H](O)[C@H]2O)[C@H](O)[C@@H](O)[C@@H]1O"
6.25
